assay: Plasma pharmacokinetics; assay type: in vivo, human; conditions: human, plasma, oral, mean Cmax on day 11, qd dosing, n=11
measured property: Cmax (ng/mL)

{"compound": "O=C(CCCCCCNC(=O)c1cnc(N(c2ccccc2)c2ccccc2)nc1)NO [ricolinostat]", "unit string": "ng/mL", "observed": 648}

---

experiment: Plasma pharmacokinetics; type: in vivo, human; conditions: human, plasma, mean Cmax of bortezomib, day 1 dose, cohort 4′ ([…]^2 with ricolinostat 160 mg QD), n=14
measured property: Cmax

{"compound": "CC(C)C[C@H](NC(=O)[C@H](Cc1ccccc1)NC(=O)c1cnccn1)B(O)O [bortezomib, reference compound]", "observed": "24 ng/mL"}

---

assay: Plasma pharmacokinetics; format: in vivo, human; settings: human, plasma, oral, mean Cmax on day 11, bid administration, n=10
measured property: Cmax (µg/mL)

{"smi": "O=C(CCCCCCNC(=O)c1cnc(N(c2ccccc2)c2ccccc2)nc1)NO", "measured property": "Cmax", "unit string": "µg/mL", "observed": 0.524}
